assay system: human endothelial lipase (EL) (Homo sapiens)
Sequence (Q9Y5X9 21-500): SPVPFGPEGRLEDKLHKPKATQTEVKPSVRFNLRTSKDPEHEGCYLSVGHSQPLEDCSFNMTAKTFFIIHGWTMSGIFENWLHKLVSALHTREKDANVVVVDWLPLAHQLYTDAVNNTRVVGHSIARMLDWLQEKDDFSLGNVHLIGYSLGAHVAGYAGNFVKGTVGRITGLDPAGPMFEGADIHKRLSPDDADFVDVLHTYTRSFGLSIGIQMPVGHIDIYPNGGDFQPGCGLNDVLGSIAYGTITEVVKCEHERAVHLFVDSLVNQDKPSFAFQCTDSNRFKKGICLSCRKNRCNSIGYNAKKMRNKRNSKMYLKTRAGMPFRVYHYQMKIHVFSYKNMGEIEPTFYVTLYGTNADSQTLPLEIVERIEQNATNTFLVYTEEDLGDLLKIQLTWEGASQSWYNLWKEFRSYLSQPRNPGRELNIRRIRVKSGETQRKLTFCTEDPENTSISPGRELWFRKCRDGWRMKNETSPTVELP
protocol details: Endothelial Lipase Assay, cell surface lipase activity (human)
condition notes: cells expressing human EL, PLA1 substrate 10 μM, fluorescence reaction rate; several values in a cell are repeat determinations
parameter measured: log10(IC50) (log10 of the value in nM)
Base-10 log of IC50, unit nM.

Below: 5 molecules and their reported log10(IC50).
COc1ccc(-c2nnc(CNC(=O)C(=O)CCCCCCc3ccccc3)o2)cc1; 2.81
COC(=O)c1cccc(COc2ccc(-c3nnc(CNC(=O)C(=O)CCCCCCc4ccc(F)nc4)s3)cc2)c1; 1.20
O=C(CCCCCCc1cccc(F)c1)C(=O)NCc1nnc(-c2ccc3ccccc3c2)o1; 2.35
O=C(CCCCCCc1ccccc1)C(=O)NCc1nnc(-c2ccc(OCc3ccccn3)cc2)s1; 1.85
O=C(CCCCCCc1ccccc1)C(=O)NCc1nnc(-c2ccc(OCc3cccnc3)cc2)o1; 2.03

Item: O=C(CCCCCCc1ccc(F)nc1)C(=O)NCc1nnc(-c2ccc(OCc3cccc(F)c3)cc2)s1 Test system: human endothelial lipase (EL) (Homo sapiens) Read-out: log10(IC50) Value: ?
1.68

Item: O=C(CCCCCCc1ccccc1)C(=O)NCc1nnc(-c2ccncc2)o1 Test system: human endothelial lipase (EL) (Homo sapiens) Read-out: log10(IC50) Value: ?
4.06

Item: COC(=O)c1cccc(COc2ccc(-c3nnc(CNC(=O)C(=O)CCCCCCc4ccccc4)s3)cc2)c1 Test system: human endothelial lipase (EL) (Homo sapiens) Read-out: log10(IC50) Value: ?
1.97
